TARGET_DESC: T1, human LRRC15 extracellular domain with C-terminal His tag (human, UniProt Q8TF66 22-538)
T1 construct: Recombinant, made in HEK293; the entry holds the extracellular domain and the His tag; SPR analyte; also called TPP-1545; hLRRC15 CT-His
T1 sequence: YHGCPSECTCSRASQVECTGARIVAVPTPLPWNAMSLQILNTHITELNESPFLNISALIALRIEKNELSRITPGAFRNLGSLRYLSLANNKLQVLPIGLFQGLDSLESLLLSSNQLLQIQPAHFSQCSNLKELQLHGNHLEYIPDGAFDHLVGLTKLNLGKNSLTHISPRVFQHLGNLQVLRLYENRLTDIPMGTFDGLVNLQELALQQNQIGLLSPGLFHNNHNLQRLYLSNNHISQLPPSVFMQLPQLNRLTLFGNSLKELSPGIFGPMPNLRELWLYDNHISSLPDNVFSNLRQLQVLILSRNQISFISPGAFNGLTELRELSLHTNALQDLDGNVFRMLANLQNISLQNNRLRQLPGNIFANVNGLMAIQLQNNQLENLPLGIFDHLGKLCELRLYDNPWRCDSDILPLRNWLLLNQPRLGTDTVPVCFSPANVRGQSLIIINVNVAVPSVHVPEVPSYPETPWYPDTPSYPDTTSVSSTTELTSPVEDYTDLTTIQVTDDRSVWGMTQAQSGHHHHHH
ASSAY_REMARKS: SPR thermodynamics (van't Hoff/Eyring), 10-37°C
For each record, write down the corresponding ΔH^0.
Remember to quote the unit after the number.

Please fill in: ΔH^0 reported for TPP-17421 (antibody, human IgG1, kappa, V domains shown, also called 438H-M306-C11-hIgG1Kappa) VH: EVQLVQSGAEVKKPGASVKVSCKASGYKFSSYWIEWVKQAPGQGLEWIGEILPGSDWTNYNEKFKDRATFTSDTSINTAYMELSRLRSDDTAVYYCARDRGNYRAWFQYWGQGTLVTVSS VL: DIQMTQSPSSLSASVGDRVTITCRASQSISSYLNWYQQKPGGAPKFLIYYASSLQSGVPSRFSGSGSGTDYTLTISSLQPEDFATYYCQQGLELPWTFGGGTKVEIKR = -44 kJ/mol

For reference, reported ΔH^0 for TPP-14392 (antibody, human IgG1, kappa, V domains shown, also called 13612-rec05-hIgG1Kappa) VH: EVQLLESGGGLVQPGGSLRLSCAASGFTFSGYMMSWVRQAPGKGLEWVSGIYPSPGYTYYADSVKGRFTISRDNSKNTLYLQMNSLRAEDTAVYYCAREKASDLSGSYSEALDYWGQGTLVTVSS VL: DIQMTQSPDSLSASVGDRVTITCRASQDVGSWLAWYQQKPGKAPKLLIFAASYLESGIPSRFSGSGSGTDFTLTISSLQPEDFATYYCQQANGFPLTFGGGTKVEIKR stands at -110 kJ/mol

Entry TPP-17078 (antibody, human IgG1, kappa, V domains shown, also called 438H-M308-H05-hIgGkappa) VH: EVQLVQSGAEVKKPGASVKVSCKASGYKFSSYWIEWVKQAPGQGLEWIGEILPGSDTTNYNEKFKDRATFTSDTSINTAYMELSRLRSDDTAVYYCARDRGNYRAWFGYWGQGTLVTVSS VL: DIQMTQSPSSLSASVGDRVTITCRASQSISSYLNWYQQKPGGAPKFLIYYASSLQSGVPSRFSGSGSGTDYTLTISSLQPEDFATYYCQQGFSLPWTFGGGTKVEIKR ; ΔH^0 = -93 kJ/mol

Per the records, this binder ( TPP-17074 (antibody, human IgG1, kappa, V domains shown, also called 438H-M161-K22-hIgG1) VH: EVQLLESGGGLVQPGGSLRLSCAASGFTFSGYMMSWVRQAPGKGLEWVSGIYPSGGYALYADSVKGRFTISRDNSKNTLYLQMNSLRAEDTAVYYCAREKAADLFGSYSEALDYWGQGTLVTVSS VL: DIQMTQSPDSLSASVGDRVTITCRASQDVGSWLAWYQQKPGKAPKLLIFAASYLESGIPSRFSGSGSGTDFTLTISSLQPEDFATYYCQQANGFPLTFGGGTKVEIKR ) has ΔH^0 equal to -95 kJ/mol

Please fill in: ΔH^0 reported for TPP-14389 (antibody, human IgG1, kappa, V domains shown, also called 13612-rec02-hIgG1Kappa) VH: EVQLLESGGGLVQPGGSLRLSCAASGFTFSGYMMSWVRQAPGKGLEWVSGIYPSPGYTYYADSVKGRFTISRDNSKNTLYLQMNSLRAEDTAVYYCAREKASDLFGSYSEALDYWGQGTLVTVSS VL: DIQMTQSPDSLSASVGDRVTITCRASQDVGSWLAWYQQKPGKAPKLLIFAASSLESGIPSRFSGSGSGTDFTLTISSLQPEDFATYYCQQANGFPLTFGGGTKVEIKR = -130 kJ/mol

Reported ΔH^0 of TPP-12942 (antibody, human IgG1, kappa, V domains shown, Prior art humanized IgG1 kappa antibody, used as comparator; also called huM25; huM25-hIgG1Kappa) VH: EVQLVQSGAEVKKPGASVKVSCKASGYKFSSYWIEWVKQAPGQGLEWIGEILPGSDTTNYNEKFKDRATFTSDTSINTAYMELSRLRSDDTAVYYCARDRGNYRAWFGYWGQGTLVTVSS VL: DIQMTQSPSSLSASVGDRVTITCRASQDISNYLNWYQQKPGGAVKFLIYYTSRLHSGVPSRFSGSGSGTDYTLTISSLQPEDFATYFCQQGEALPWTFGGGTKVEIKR : -71 kJ/mol

Where these numbers come from: patent US20240108766A1
